- assay-system: wt human JAK1, catalytic site (Homo sapiens, UniProt P23458)
- Construct: wt human JAK1, catalytic site
- Sequence (P23458 875-1153 limits assumed): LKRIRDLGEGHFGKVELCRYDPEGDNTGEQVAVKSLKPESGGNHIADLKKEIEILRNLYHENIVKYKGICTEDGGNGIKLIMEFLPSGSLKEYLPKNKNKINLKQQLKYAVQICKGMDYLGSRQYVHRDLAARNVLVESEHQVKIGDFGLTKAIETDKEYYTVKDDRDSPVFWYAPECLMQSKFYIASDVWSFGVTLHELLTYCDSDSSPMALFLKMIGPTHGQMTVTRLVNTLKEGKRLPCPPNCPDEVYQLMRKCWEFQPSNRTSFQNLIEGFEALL
- experiment: HTRF KinEASE assay, JAK1
- conditions-used: 2.5 μM ATP; read-out: IC50, Activity Toward JAK1
IC50: recorded values

Below: 6 compounds and their reported IC50.
| compound | assay-system | IC50 |
| --- | --- | --- |
| CN1CCC(Oc2ccc(Nc3cn(-c4c(F)cccc4F)nc3C(N)=O)cc2)CC1 | wt human JAK1, catalytic site (Homo sapiens, UniProt P23458) | 100 to 1000 nM |
| COCCCNC(=O)c1ccc(Nc2nn(-c3c(Cl)cccc3Cl)nc2C(N)=O)cc1 | wt human JAK1, catalytic site (Homo sapiens, UniProt P23458) | 10 to 100 nM |
| CCc1nc(C(F)(F)F)nn1-c1ccc(Nc2cn(-c3c(Cl)cccc3Cl)nc2C(N)=O)cc1 | wt human JAK1, catalytic site (Homo sapiens, UniProt P23458) | 100 to 1000 nM |
| NC(=O)c1nn(-c2c(Cl)cccc2Cl)cc1Nc1ccc(C(=O)N2CC(F)(F)C(F)(F)C2)nc1 | wt human JAK1, catalytic site (Homo sapiens, UniProt P23458) | 100 to 1000 nM |
| NC(=O)c1nn(-c2c(Cl)cccc2Cl)nc1Nc1cnn(CC(=O)N2CCOCC2)c1 | wt human JAK1, catalytic site (Homo sapiens, UniProt P23458) | 10 to 100 nM |
| CN(C)C1CCN(C(=O)c2ccc(Nc3cn(-c4c(Cl)cccc4Cl)nc3C(N)=O)cc2)C1 (stereo not shown) | wt human JAK1, catalytic site (Homo sapiens, UniProt P23458) | 10 to 100 nM |

Asked: Look up IC50 of `Cn1cc(C(F)(F)F)nc1-c1ccc(Nc2cn(-c3c(Cl)cccc3Cl)nc2C(N)=O)nc1` and report it.
Given back: 10 to 100 nM

Asked: # return recorded IC50 for entry `CC1(C)CN(C(=O)c2ccc(Nc3nn(-c4c(Cl)cccc4Cl)nc3C(N)=O)nc2)C1`
Given back: 100 to 1000 nM

Asked: Complete the entry with IC50 for `NC(=O)c1nn(-c2c(Cl)cccc2Cl)cc1Nc1ccc(C(=O)N2CCOCC2)cc1`
Given back: 10 to 100 nM

Asked: Specify reported IC50 for the compound shown: `CN(C)[C@H]1CCN(C(=O)c2ccc(Nc3cn(-c4c(Cl)cccc4Cl)nc3C(N)=O)cn2)C1`
Given back: 100 to 1000 nM

Asked: Fill in reported IC50 for this entry: `NC(=O)c1nn(-c2c(Cl)cccc2Cl)cc1Nc1ccc(-n2ncc3c2CCOC3)cc1`
Given back: 100 to 1000 nM

Asked: For `NC(=O)c1nn(-c2c(Cl)cccc2Cl)cc1Nc1ccc(-n2ccc(Cl)n2)cc1` , write its IC50.
Given back: 100 to 1000 nM

Asked: Answer with reported IC50 of `Cc1ccnnc1-c1ccc(Nc2cn(-c3c(F)cccc3Cl)nc2C(N)=O)cc1`
Given back: 100 to 1000 nM

Asked: Consider the compound `CC(C)n1cnnc1-c1ccc(Nc2nn(-c3c(Cl)cccc3Cl)nc2C(N)=O)cc1` . State its measured IC50.
Given back: 10 to 100 nM

Asked: Answer with the recorded IC50 for the compound listed here: `CCn1cc(C(F)(F)F)nc1-c1ccc(Nc2cn(-c3c(F)cccc3Cl)nc2C(N)=O)cc1`
Given back: 10 to 100 nM

Asked: Look up and state reported IC50 for `Cn1ccc(=O)n1-c1ccc(Nc2cn(-c3c(Cl)cccc3Cl)nc2C(N)=O)cc1`
Given back: 100 to 1000 nM
